Concentration of nitrite nitrogen by entry:
- Tested on: Nitrobacter spp.
- protocol description: Nitrite nitrogen in ammonium amended soil incubated at 25° C.
- condition label: 0.25 ppm; week 12; soil 25° C.; 200 ppm N
Where a name gives a salt, the structure may show the parent alone.
assay readout: Concentration of nitrite nitrogen (ppm)

[[record]]
molecule = "CC[C@@]1([C@@H]2O[C@@H]([C@H]3O[C@@](O)(CO)[C@H](C)C[C@@H]3C)C[C@@H]2C)CC[C@H]([C@]2(C)CC[C@]3(C[C@H](O)[C@@H](C)[C@@H]([C@@H](C)[C@@H](OC)[C@H](C)C(=O)O)O3)O2)O1 [Monensin sodium salt, Monensin]"
quantitative_result = 30

[[record]]
molecule = "CO[C@@H]1[C@@H](OC)[C@H](C)[C@@](O)(CC(=O)O)O[C@H]1[C@H](C)[C@H]1O[C@@]2(CC[C@@](C)([C@H]3CC[C@@](C)([C@@H]4O[C@@H]([C@H]5O[C@](C)(O)[C@H](C)C[C@@H]5C)C[C@@H]4O[C@@H]4C[C@H](OC)[C@@H](OC)[C@H](C)O4)O3)O2)C[C@H](O)[C@H]1C [Maduramicin monoammonium salt, Maduramicin]"
quantitative_result = 0

[[record]]
molecule = "CC[C@@H](C(=O)[C@@H](C)[C@@H](O)[C@H](C)[C@@H]1O[C@@H]([C@@H](CC)C(=O)O)CC[C@@H]1C)[C@H]1O[C@]2(C=C[C@@H](O)[C@]3(CC[C@@](C)([C@H]4CC[C@](O)(CC)[C@H](C)O4)O3)O2)[C@H](C)C[C@@H]1C [Salinomycin monosodium salt, Salinomycin]"
quantitative_result = 9

[[record]]
molecule = "CC[C@@H](C(=O)[C@@H](C)[C@@H](O)[C@H](C)CCc1ccc(C)c(O)c1C(=O)O)[C@H]1O[C@](CC)([C@H]2CC[C@](O)(CC)[C@H](C)O2)C[C@@H]1C [Lasalocid sodium salt, Lasalocid]"
quantitative_result = 8


###

- Test system: Nitrobacter spp.
- protocol description: Nitrite nitrogen in ammonium amended soil incubated at 25° C.
- condition label: 0.50 ppm; week 12; soil 25° C.; 200 ppm N
Structures can show the parent of a compound that is named as a salt.
Here, each record is paired with measured Concentration of nitrite nitrogen data.
assay readout: Concentration of nitrite nitrogen (ppm)

[[record]]
molecule = "CO[C@@H]1[C@@H](OC)[C@H](C)[C@@](O)(CC(=O)O)O[C@H]1[C@H](C)[C@H]1O[C@@]2(CC[C@@](C)([C@H]3CC[C@@](C)([C@@H]4O[C@@H]([C@H]5O[C@](C)(O)[C@H](C)C[C@@H]5C)C[C@@H]4O[C@@H]4C[C@H](OC)[C@@H](OC)[C@H](C)O4)O3)O2)C[C@H](O)[C@H]1C [Maduramicin monoammonium salt, Maduramicin]"
target = "Nitrobacter spp."
assay_readout = "Concentration of nitrite nitrogen"
quantitative_result = 4

[[record]]
molecule = "CC[C@@]1([C@@H]2O[C@@H]([C@H]3O[C@@](O)(CO)[C@H](C)C[C@@H]3C)C[C@@H]2C)CC[C@H]([C@]2(C)CC[C@]3(C[C@H](O)[C@@H](C)[C@@H]([C@@H](C)[C@@H](OC)[C@H](C)C(=O)O)O3)O2)O1 [Monensin sodium salt, Monensin]"
target = "Nitrobacter spp."
assay_readout = "Concentration of nitrite nitrogen"
quantitative_result = 4

[[record]]
molecule = "CC[C@@H](C(=O)[C@@H](C)[C@@H](O)[C@H](C)CCc1ccc(C)c(O)c1C(=O)O)[C@H]1O[C@](CC)([C@H]2CC[C@](O)(CC)[C@H](C)O2)C[C@@H]1C [Lasalocid sodium salt, Lasalocid]"
target = "Nitrobacter spp."
assay_readout = "Concentration of nitrite nitrogen"
quantitative_result = -11

[[record]]
molecule = "Clc1cccc(C(Cl)(Cl)Cl)n1"
target = "Nitrobacter spp."
assay_readout = "Concentration of nitrite nitrogen"
quantitative_result = -10

[[record]]
molecule = "CC[C@@H](C(=O)[C@@H](C)[C@@H](O)[C@H](C)[C@@H]1O[C@@H]([C@@H](CC)C(=O)O)CC[C@@H]1C)[C@H]1O[C@]2(C=C[C@@H](O)[C@]3(CC[C@@](C)([C@H]4CC[C@](O)(CC)[C@H](C)O4)O3)O2)[C@H](C)C[C@@H]1C [Salinomycin monosodium salt, Salinomycin]"
target = "Nitrobacter spp."
assay_readout = "Concentration of nitrite nitrogen"
quantitative_result = 1


###

Measured Concentration of nitrite nitrogen, listed per entry.
- System: Nitrobacter spp.
- protocol description: Nitrite nitrogen in ammonium amended soil incubated at 25° C.
- condition label: 0.25 ppm; week 0; soil 25° C.; 200 ppm N
Structures can show the parent of a compound that is named as a salt.
assay readout: Concentration of nitrite nitrogen (ppm)

[[record]]
molecule = "CC[C@@H](C(=O)[C@@H](C)[C@@H](O)[C@H](C)[C@@H]1O[C@@H]([C@@H](CC)C(=O)O)CC[C@@H]1C)[C@H]1O[C@]2(C=C[C@@H](O)[C@]3(CC[C@@](C)([C@H]4CC[C@](O)(CC)[C@H](C)O4)O3)O2)[C@H](C)C[C@@H]1C [Salinomycin monosodium salt, Salinomycin]"
quantitative_result = 8

[[record]]
molecule = "CO[C@@H]1[C@@H](OC)[C@H](C)[C@@](O)(CC(=O)O)O[C@H]1[C@H](C)[C@H]1O[C@@]2(CC[C@@](C)([C@H]3CC[C@@](C)([C@@H]4O[C@@H]([C@H]5O[C@](C)(O)[C@H](C)C[C@@H]5C)C[C@@H]4O[C@@H]4C[C@H](OC)[C@@H](OC)[C@H](C)O4)O3)O2)C[C@H](O)[C@H]1C [Maduramicin monoammonium salt, Maduramicin]"
quantitative_result = 7

[[record]]
molecule = "CC[C@@H](C(=O)[C@@H](C)[C@@H](O)[C@H](C)CCc1ccc(C)c(O)c1C(=O)O)[C@H]1O[C@](CC)([C@H]2CC[C@](O)(CC)[C@H](C)O2)C[C@@H]1C [Lasalocid sodium salt, Lasalocid]"
quantitative_result = 5

[[record]]
molecule = "CC[C@@]1([C@@H]2O[C@@H]([C@H]3O[C@@](O)(CO)[C@H](C)C[C@@H]3C)C[C@@H]2C)CC[C@H]([C@]2(C)CC[C@]3(C[C@H](O)[C@@H](C)[C@@H]([C@@H](C)[C@@H](OC)[C@H](C)C(=O)O)O3)O2)O1 [Monensin sodium salt, Monensin]"
quantitative_result = 6


###

- System: Nitrobacter spp.
- protocol description: Nitrite nitrogen in ammonium amended soil incubated at 25° C.
- condition label: 0.10 ppm; week 0; soil 25° C.; 200 ppm N
Structures can show the parent of a compound that is named as a salt.
Concentration of nitrite nitrogen listing for selected compounds.
assay readout: Concentration of nitrite nitrogen (ppm)

[[record]]
compound = "CC[C@@]1([C@@H]2O[C@@H]([C@H]3O[C@@](O)(CO)[C@H](C)C[C@@H]3C)C[C@@H]2C)CC[C@H]([C@]2(C)CC[C@]3(C[C@H](O)[C@@H](C)[C@@H]([C@@H](C)[C@@H](OC)[C@H](C)C(=O)O)O3)O2)O1 [Monensin sodium salt, Monensin]"
quantitative_result = 9

[[record]]
compound = "CO[C@@H]1[C@@H](OC)[C@H](C)[C@@](O)(CC(=O)O)O[C@H]1[C@H](C)[C@H]1O[C@@]2(CC[C@@](C)([C@H]3CC[C@@](C)([C@@H]4O[C@@H]([C@H]5O[C@](C)(O)[C@H](C)C[C@@H]5C)C[C@@H]4O[C@@H]4C[C@H](OC)[C@@H](OC)[C@H](C)O4)O3)O2)C[C@H](O)[C@H]1C [Maduramicin monoammonium salt, Maduramicin]"
quantitative_result = 6

[[record]]
compound = "CC[C@@H](C(=O)[C@@H](C)[C@@H](O)[C@H](C)[C@@H]1O[C@@H]([C@@H](CC)C(=O)O)CC[C@@H]1C)[C@H]1O[C@]2(C=C[C@@H](O)[C@]3(CC[C@@](C)([C@H]4CC[C@](O)(CC)[C@H](C)O4)O3)O2)[C@H](C)C[C@@H]1C [Salinomycin monosodium salt, Salinomycin]"
quantitative_result = 7


###

This section presents compounds with their documented Concentration of nitrite nitrogen values.
- Test system: Nitrobacter spp.
- protocol description: Nitrite nitrogen in ammonium amended soil incubated at 25° C.
- condition label: 0.10 ppm; week 4; soil 25° C.; 200 ppm N
- Description: Determination of nitrite nitrogen and nitrate nitrogen in soil prepared in Example 1 above, which is amended with 200 ppm of nitrogen as aqueous ammonium sulfate, […], is determined using the nitrite and nitrate analysis of the American Organization of Analytical Chemists (AOAC pp. 653-655).
Where a name gives a salt, the structure may show the parent alone.
assay readout: Concentration of nitrite nitrogen (ppm)

[[record]]
compound = "CC[C@@]1([C@@H]2O[C@@H]([C@H]3O[C@@](O)(CO)[C@H](C)C[C@@H]3C)C[C@@H]2C)CC[C@H]([C@]2(C)CC[C@]3(C[C@H](O)[C@@H](C)[C@@H]([C@@H](C)[C@@H](OC)[C@H](C)C(=O)O)O3)O2)O1 [Monensin sodium salt, Monensin]"
quantitative_result = 11

[[record]]
compound = "CO[C@@H]1[C@@H](OC)[C@H](C)[C@@](O)(CC(=O)O)O[C@H]1[C@H](C)[C@H]1O[C@@]2(CC[C@@](C)([C@H]3CC[C@@](C)([C@@H]4O[C@@H]([C@H]5O[C@](C)(O)[C@H](C)C[C@@H]5C)C[C@@H]4O[C@@H]4C[C@H](OC)[C@@H](OC)[C@H](C)O4)O3)O2)C[C@H](O)[C@H]1C [Maduramicin monoammonium salt, Maduramicin]"
quantitative_result = 3

[[record]]
compound = "CC[C@@H](C(=O)[C@@H](C)[C@@H](O)[C@H](C)[C@@H]1O[C@@H]([C@@H](CC)C(=O)O)CC[C@@H]1C)[C@H]1O[C@]2(C=C[C@@H](O)[C@]3(CC[C@@](C)([C@H]4CC[C@](O)(CC)[C@H](C)O4)O3)O2)[C@H](C)C[C@@H]1C [Salinomycin monosodium salt, Salinomycin]"
quantitative_result = 6

[[record]]
compound = "CC[C@@H](C(=O)[C@@H](C)[C@@H](O)[C@H](C)CCc1ccc(C)c(O)c1C(=O)O)[C@H]1O[C@](CC)([C@H]2CC[C@](O)(CC)[C@H](C)O2)C[C@@H]1C [Lasalocid sodium salt, Lasalocid]"
quantitative_result = 15


These data points were gathered from patent US4746349A.
